# assay.name: Effect of a single 2 g dose of SYM-1219 on the plasma pharmacokinetics of EE2 and NET in healthy female subjects
# Assay type: in vivo, human
# test.conditions: female, human, plasma, Group B1 Period 1: EE2/NET alone; read-out: NET AUC0-∞, Median
parameter: AUC(0-inf) (ng·h/mL)

C#C[C@]1(O)CC[C@H]2[C@@H]3CCC4=CC(=O)CC[C@@H]4[C@H]3CC[C@@]21C ... 45.3

---

# assay.name: Effect of a single 2 g dose of SYM-1219 on the plasma pharmacokinetics of EE2 and NET in healthy female subjects
# Format: in vivo, human
# test.conditions: female, human, plasma, Group B1 Period 2: EE2/NET followed by SYM-1219 2 grams on Day 1; read-out: NET AUC0-∞, Median
parameter: AUC(0-inf) (ng·h/mL)

C#C[C@]1(O)CC[C@H]2[C@@H]3CCC4=CC(=O)CC[C@@H]4[C@H]3CC[C@@]21C ... 54.3

---

# assay.name: Effect of a single 2 g dose of SYM-1219 on the plasma pharmacokinetics of EE2 and NET in healthy female subjects
# Type: in vivo, human
# test.conditions: female, human, plasma, Group B1 Period 1: EE2/NET alone; read-out: EE2 AUC0-t, Mean
parameter: AUC(0-t) (ng·h/mL)

C#C[C@]1(O)CC[C@H]2[C@@H]3CCc4cc(O)ccc4[C@H]3CC[C@@]21C ... 0.644

---

# assay.name: Effect of a single 2 g dose of SYM-1219 on the plasma pharmacokinetics of EE2 and NET in healthy female subjects
# Assay type: in vivo, human
# test.conditions: female, human, plasma, Group B2 Period 2: SYM-1219 2 grams on Day 1, EE2/NET on Day 2; read-out: NET AUC0-∞, Median
# Method: Methods: Fifty-four (54) healthy female subjects, ages 18-65, received EE2/NET alone and in combination, where SYM-1219+EE2/NET were co-administered on Day 1 (Group B1; N=27) or SYM-1219 on Day 1 and EE2/NET on Day 2 (Group B2; N=27). Serial blood samples were drawn to measure plasma concentrations of EE2/NET. […] Safety was evaluated by recording of adverse events, vital signs, ECGs and standard laboratory tests.
parameter: AUC(0-inf) (ng·h/mL)

C#C[C@]1(O)CC[C@H]2[C@@H]3CCC4=CC(=O)CC[C@@H]4[C@H]3CC[C@@]21C ... 51.6

---

# assay.name: Effect of a single 2 g dose of SYM-1219 on the plasma pharmacokinetics of EE2 and NET in healthy female subjects
# Format: in vivo, human
# test.conditions: female, human, plasma, Group B1 Period 1: EE2/NET alone; read-out: NET AUC0-t, Mean
parameter: AUC(0-t) (ng·h/mL)

C#C[C@]1(O)CC[C@H]2[C@@H]3CCC4=CC(=O)CC[C@@H]4[C@H]3CC[C@@]21C [NET, norethindrone] ... 49.4

---

# assay.name: Effect of a single 2 g dose of SYM-1219 on the plasma pharmacokinetics of EE2 and NET in healthy female subjects
# Assay type: in vivo, human
# test.conditions: female, human, plasma, Group B2 Period 2: SYM-1219 2 grams on Day 1, EE2/NET on Day 2; read-out: NET t1/2, Mean (converted)
parameter: half-life (h)

C#C[C@]1(O)CC[C@H]2[C@@H]3CCC4=CC(=O)CC[C@@H]4[C@H]3CC[C@@]21C [NET, norethindrone] ... 9.51
